- System: MDR1 (P-gp)
- protocol_text: Efflux ratio of apparent permeability in dog MDCK-MDR1 cells
- Format: ADME, cell-based, Canis lupus familiaris
Known efflux ratio of a selection of molecules
reported_property: efflux ratio

* C=CC(=O)NCCCC[C@H](NC(=O)Cc1ccccc1F)C(=O)N1CCN(C(=O)c2cccc3ccccc23)CC1 | 61.7
* C=CC(=O)NCCCC[C@H](NC(=O)Cc1ccccc1C)C(=O)N1CCN(C(=O)c2cccc3ccccc23)CC1 | 51.6

###

# Ratio per entry
- measurement_target: Protein-glutamine gamma-glutamyltransferase (Homo sapiens) (UniProt P21980)
- Sequence (whole entry): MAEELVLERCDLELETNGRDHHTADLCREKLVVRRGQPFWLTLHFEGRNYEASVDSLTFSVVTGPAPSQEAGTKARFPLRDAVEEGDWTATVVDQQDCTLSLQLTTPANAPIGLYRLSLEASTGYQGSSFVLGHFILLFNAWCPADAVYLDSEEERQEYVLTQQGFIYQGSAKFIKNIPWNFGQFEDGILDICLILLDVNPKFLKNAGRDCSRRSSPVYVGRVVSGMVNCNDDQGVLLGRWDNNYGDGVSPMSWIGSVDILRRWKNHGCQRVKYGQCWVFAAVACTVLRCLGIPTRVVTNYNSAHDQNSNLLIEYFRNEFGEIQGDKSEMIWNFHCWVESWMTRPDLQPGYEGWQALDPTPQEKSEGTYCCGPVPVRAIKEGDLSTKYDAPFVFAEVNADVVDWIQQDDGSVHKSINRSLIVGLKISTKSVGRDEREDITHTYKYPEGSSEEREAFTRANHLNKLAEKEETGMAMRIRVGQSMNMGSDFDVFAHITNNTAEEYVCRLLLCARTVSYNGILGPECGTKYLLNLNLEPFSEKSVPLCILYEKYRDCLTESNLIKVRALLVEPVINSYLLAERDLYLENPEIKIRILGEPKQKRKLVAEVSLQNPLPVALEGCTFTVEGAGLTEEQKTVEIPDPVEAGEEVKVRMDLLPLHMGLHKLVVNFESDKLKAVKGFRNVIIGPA
- protocol_text: Inhibition of TG2 (unknown origin) using Cbz-Glu(gamma-p-nitrophenyl ester)Gly (AL5) as substrate assessed as Kinact/Ki ratio and measured by colorimetric assay
reported_property: Ratio

• C=CC(=O)NCCCC[C@H](NS(=O)(=O)CC)C(=O)N1CCN(C(=O)c2cccc3ccccc23)CC1 = 31.1 10^3/M/min
• C=CC(=O)NCCCC[C@H](NC(=O)CCc1ccccc1)C(=O)N1CCN(C(=O)c2cccc3ccccc23)CC1 = 214 10^3/M/min
• C=CC(=O)NCCCC[C@H](NC(=O)C(C)C)C(=O)N1CCN(C(=O)c2cccc3ccccc23)CC1 = 65.1 10^3/M/min
• C=CC(=O)NCCCC[C@H](NC(C)=O)C(=O)N1CCN(C(=O)c2cccc3ccccc23)CC1 = 44.1 10^3/M/min
• C=CC(=O)NCCCC[C@H](NC(=O)c1ccc(F)cc1)C(=O)N1CCN(C(=O)c2cccc3ccccc23)CC1 = 55.4 10^3/M/min
• C=CC(=O)NCCCC[C@H](NC(=O)CC1CCCCC1)C(=O)N1CCN(C(=O)c2cccc3ccccc23)CC1 = 20.9 10^3/M/min
• C=CC(=O)NCCCC[C@H](NC(=O)OCc1ccccc1)C(=O)NCCOCCOCCNS(=O)(=O)c1cccc2c(N(C)C)cccc12 = 14 10^3/M/min
• C=CC(=O)NCCCC[C@H](NC(=O)CCCc1ccccc1)C(=O)N1CCN(C(=O)c2cccc3ccccc23)CC1 = 39.6 10^3/M/min
